System: M. tuberculosis strain ddn::tn
Assay summary: microbe, parasite or virus in culture
Type: cell-based
Test settings: Mycobacterium tuberculosis, read-out: MIC (µM) ddn::tn
Measured MIC by item
Report as a plain number; the unit µM is understood.

q: Looking for the measured MIC of NNC(=O)c1ccncc1 [isoniazid, reference compound] , can you help?
a: 0.078

q: Looking for the measured MIC of COc1cccc(Nc2ccc([N+](=O)[O-])c3nonc23)c1 [JSF-2164] , can you help?
a: 8

q: Looking for the measured MIC of COc1cccc(Nc2ccc(N)c3nonc23)c1 [JSF-3616] , can you help?
a: 32

q: Looking for the measured MIC of COc1cccc(Nc2ccc3nonc3c2N)c1 [JSF-3617] , can you help?
a: 250

====

Measured on: UniProtKB P9WGR1
Assay summary: biochemical
Test settings: InhA IC50 with Tween-20, Tween-20 at 1% of its CMC in enzymatic buffer
Parameter: IC50 (µM)
Report as a plain number; the unit µM is understood.

q: Looking for the measured IC50 of COc1cccc(Nc2ccc([N+](=O)[O-])c3nonc23)c1 [JSF-2164] , can you help?
a: 65

====

Measured on: purified M. tuberculosis InhA (Mycobacterium tuberculosis)
Sequence (P9WGR1 whole entry, looked up): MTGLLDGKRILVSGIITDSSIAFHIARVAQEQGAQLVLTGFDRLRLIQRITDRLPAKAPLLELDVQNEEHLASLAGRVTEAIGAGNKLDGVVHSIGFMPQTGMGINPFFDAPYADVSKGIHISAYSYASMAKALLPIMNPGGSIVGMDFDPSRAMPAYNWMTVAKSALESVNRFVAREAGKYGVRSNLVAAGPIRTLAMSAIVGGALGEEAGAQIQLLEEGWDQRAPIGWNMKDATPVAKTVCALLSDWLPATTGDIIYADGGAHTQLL
Assay summary: biochemical
Test settings: InhA IC50 (µM), without Tween-20; mean ± standard error
Parameter: IC50
Give the value; after it, write the unit.

q: Looking for the measured IC50 of COc1cccc(Nc2ccc([N+](=O)[O-])c3nonc23)c1 [JSF-2164] , can you help?
a: 51 µM
